- assay.system: pooled human IgG
measured.metric: log10 Enzyme Activity Endpoint Assay (purified): Fab′2 (log10 of the value in ng/µL)
Log scale reminder: Enzyme Activity Endpoint Assay (purified): Fab′2 in ng/µL, then log10 taken.

Task item: Can you look up the measured log10 Enzyme Activity Endpoint Assay (purified): Fab′2 of PRT-607 (protein) MQITSVWTYGVKPLTPEQFRYNNEDVIHAPYLEHQGWYDITKAFDGKDNLLCGAATAGNMLHWWFDQNKTEIEAYLSKHPEKQKIIFNNQELFDLKAAIDTKDSQTNSQLFNYFRDKAFPNLSARQLGVMPDLVLDMFINGYYLNVFKTQSTDVNRPYQDKDKRGGIFDAVFTRGDQTTLLTARHDLKNKGLNDISTIIKQELTEGRALALSHTYANVSISHVINLWGADFNAEGNLEAIYVTDSDANASIGMKKYFVGINAHGHVAISAKKIEGENIGAQVLGLFTLSSGKDIWQKLSLEHHHHHH for me?
Reply: 2.89

Task item: Can you look up the measured log10 Enzyme Activity Endpoint Assay (purified): Fab′2 of PRT-639 (protein) MQITSVWTKGVTPLTPEQFRYNNEDVIHAPYLAHQGWYDITKTFNGKDDLLCGAATAGNMLHWWFDQNKTEIEAYLSKHPEKQKIIFNNQELFDLKAAIDTKDSQTNSQLFNYFRDKAFPNLSARQLGVMPDLVLDMFINGYYLNVFKTQSTDVNRPYQDKDKRGGIFDAVFTRGDQTTLLTARHDLKNKGLNDISTIIKQELTEGRALALSHTYANVSISHVINLWGADFNAEGNLEAIYVTDSDADASIGMKKYFVGINAHGHVAISAKKIEGENIGAQVLGLFTLSSGKDIWQKLSLEHHHHHH for me?
Reply: 2.90

Task item: Can you look up the measured log10 Enzyme Activity Endpoint Assay (purified): Fab′2 of PRT-615 (protein) MQITSVWTKGVTPLTPEQFRYNNEDVIHAPYLAHQGWYDITKAFDGKDNLLCGAATAGNMLHWWFDQNKTEIEAYLSKYPEKQKIIFNNQELFDLRAAINTKDSQTNSQLFNYFRDKAFPNLSARQLGVMPDLVLDMFINGYYLNVFKTQSTDVNRPYQDKDKRGGIFDAVFNRGDQTTLLTARHDLKNKGLNDISTIIKQELSSGRALALSHTYANVSISHVINLWGADFNAEGNLEAIYVTDSDANSNIGMKKYKVGINAHGHVAISAKKIEGENIGAQVLGLFTLSSGKDIWQKLSLEHHHHHH for me?
Reply: 2.89

Task item: Can you look up the measured log10 Enzyme Activity Endpoint Assay (purified): Fab′2 of PRT-74 (protein) MANQEIRYSEVTPSHVTSVWTKGVTPPANFTQGEDVFHAPYVANQGWYDITKTFNGKDNLLCGAATAGNMLHWWFDQNKEEIEAYLKKHPEKQKIMFGDQELLDVRKVINTKDSQTNSELFNYFRDKAFPGLSARRLGVMPDLVLDMFINGYYLNVYKTQTTDVNRTYQEKDRRGGIFDAVFTRGDQSKLLTSRHDFKEKTLKEISDLIKKELTEGKALGLSHTYANVRINHVINLWGADFDSNGNLKAIYVTDSDSNASIGMKKYFVGVNSAGKVAISAKEIKEDNIGAQVLGLFTLSTGQDIWNQTN for me?
Reply: 1.41

Task item: Can you look up the measured log10 Enzyme Activity Endpoint Assay (purified): Fab′2 of PRT-80 (protein) MANQEIRYSEVTPKHITSVWTKGVTPPTQFIQGEDVFHAPYKANQGWYDITKTFNGKDDLLCGAATAGNMLHWWFDQNKEEIEAYLKKHPEKQKIMFGDQELLDVRKAINTKDDQTNSELFNYFRDKAFPNLSARRLGVMPDHVLDMFINGYYLNVNKTQTTDVNRTYQEKDPRGGIFDAVFTRGDQSKLLTSRHDFKEKTLKEISDLIKQELTEGKALGLSHTYANVRINHVINLWGADFDSNGNLKAIYVTDSDSDASIGMKKYFVGVNSAGKVAISAKEIKGDNIGAQVLGLFTLSTGQDIWNQTN for me?
Reply: 1.18

Task item: Can you look up the measured log10 Enzyme Activity Endpoint Assay (purified): Fab′2 of PRT-63 (protein) MANQEIRYSEVTPYHVTSVWTKGVTPPANFTQGEDVFHAPYVANQGWYDITKTFNGKDDLLCGAATAGNMLHWWFDQNKEQIKRYLKEHPEKQKINFNGEQMFDVKEAIDTKNHQLDSKLFEYFKEKAFPYLSTKHLGVFPDHVLDMFINGYRLSLTNHGPTPVKEGSKDPRGGIFDDVFTRGDQSKLLTSRHDFKEKNLKEISDLIKKELTEGKALGLSHTYANVRINHVINLWGADFDSNGNLKAIYVTDSDSNASIGMKKYFVGVNSAGKVAISAKEIKEDNIGAQVLGLFTLSTGQDSWNQTN for me?
Reply: 1.64

Task item: Can you look up the measured log10 Enzyme Activity Endpoint Assay (purified): Fab′2 of PRT-563 (protein) MANQEIRYSEATPSHITSVWTKGVTPPTQFIQNEDVLHAPYIANQGWYDITKTFNGKDDLLCGAATAGNMLHWWFDQNKTQIENYLKKHPEKQKINFNGEQMFDVKEAIDTKDSQTDSALFSYFKDKAFPYLSTKHLGVFPDHVIDMFINGYRLSLTNHGPTPVKRQTKDPRGGIFDAVFTRGDQSKLLTARHDFKEKTLNEISQLIKQELTEGKALGLSHTYANVRINHVINLWGADFNAEGNLEAIYVTDSDSNASIGMKKYYVGVNAAGKVAISAKEIEGDNIGAQVLGLFTLSTGQDIWQQTNLEHHHHHH for me?
Reply: 2.91

Task item: Can you look up the measured log10 Enzyme Activity Endpoint Assay (purified): Fab′2 of PRT-550 (protein) MANQEIRYSEETPKTITSIWTKGVTPPTDFIKNEDVLHAPYIANQGWYDITKTFNGKDDLLCGAATAGNMLHWWFDQNKEEIENYLKKHPEKQKINFNGEQMFDVKEAIDTKDSQTDSKLFEYFKDKAFPYLSTKHLGVFPDHVIDMFINGYRLSLTNHGPTPVKRGTKDPRGGIFDAVFTRGDQSKLLTARHDFKEKTLNEISDLIKQELTEGKALGLSHTYANVRINHVINLWGADFNSEGNLEAIYVTDSDSNASIGMKKYYVGVNAAGKVAISAKEIEGDNIGAQVLGLFTLSTGQDIWNQTNLEHHHHHH for me?
Reply: 2.95

FYI, the data here is from patent US20250027068.
